# Assay method text: Volume of distribution at steady state in human plasma at 100 mg, iv by LC-MS/MS analysis
# Format: ADME, organism-based
# Conditions used: read-out: Vdss
*1 amine or outer side, *2 acyl side, *3 side chain or, on linkers, in order; H or OH if unused. Where a SMILES comes first, the peptide text is derived from it. Bridges are numbered along the chain shown (N, C = ends). [ ]: non-standard residue; d: D form. The star is where a group is joined. pTerphenylCO(4''-OnC5H11) = CCCCCOc1ccc(-c2ccc(-c3ccc(C(=O)*)cc3)cc2)cc1; Orn(4R-OH,5R-OH) = O=C([C@H](C[C@@H](O)[C@@H](O)N[*:3])N[*:1])[*:2]; hTyr(3S-OH,4S-OH) = N[C@H](C(=O)O)[C@H](O)[C@@H](O)c1ccc(O)cc1; Pro(3S-OH,4S-Me) = C[C@H]1CN[C@H](C(=O)O)[C@H]1O; Hyp = O=C(O)[C@@H]1C[C@@H](O)CN1
Measure name: Vd (L)
Report the value in L with no unit label.

## Input Complete the entry with Vd for CCCCCOc1ccc(-c2ccc(-c3ccc(C(=O)N[C@H]4C[C@@H](O)[C@@H](O)NC(=O)[C@@H]5[C@@H](O)[C@@H](C)CN5C(=O)[C@H]([C@@H](C)O)NC(=O)[C@H]([C@H](O)[C@@H](O)c5ccc(O)cc5)NC(=O)[C@@H]5C[C@@H](O)CN5C(=O)[C@H]([C@@H](C)O)NC4=O)cc3)cc2)cc1 [ANIDULAFUNGIN] ({pTerphenylCO(4''-OnC5H11)}-[Orn(4R-OH,5R-OH)]T[Hyp][hTyr(3S-OH,4S-OH)]T[Pro(3S-OH,4S-Me)]; lactam 1-C)
## Output 32.6
